Test system: U2OS
Assay: Incucyte cell viability with U2OS; also: filed as whole numbers so only -1 and 0 and 1 occur
Type: toxicity, cell-based
Conditions: human, 0 h, 10 µM, compound concentration 10 uM, replicate number 2, timepoint 0 hours
readout-type: Growth Rate
Number, no unit, nothing else.

> print(dat)
                            compound.string  readout.type  quantitative.result
1  Cn1c(CNc2cccc(C(=O)NCc3ccccc3C(F)(F)F)c2)nnc1-c1ccncc1   Growth Rate                    0

Return reported Growth Rate; argument: "CCOC(=O)CCNc1cc(N2CCc3ccccc3CC2)nc(-c2cccnc2)n1"
0

Also need "Cc1c[nH]c2nccc(Oc3c(F)cc(Nc4cc(Cl)nc(N)n4)cc3F)c12" , thanks.
0

Similarly, "C[C@H](N)COC(=O)[C@@H](CCCCN)NC(=O)Cc1c(-c2ccc3ccccc3c2)[nH]c2c1ccc1ccccc12" ?
0

Please answer likewise for "CNC(=O)c1ccc(Nc2ncc(C(F)(F)F)c(NCc3nccnc3N(C)S(C)(=O)=O)n2)cc1"
1

How about "CC#CC(=O)N1CCC[C@H]1c1nc(-c2ccc(C(=O)Nc3ccccn3)cc2)c2c(N)nccn12" ?
1

Param item: "CCOC(=O)c1cc2cc(-c3cc(C(=O)NCc4ccc(C(=O)O)cc4)nn3C)ccc2[nH]1"
0

Note, next up: "C#Cc1cccc(Nc2ncnc3cc(OCCOC)c(OCCOC)cc23)c1"
1

What do we get for "COc1cc(Nc2nccc(-c3cnn4nc(OC)ccc34)n2)cc(C(F)(F)F)c1" ?
0

###

System: U2OS
Assay: Multiplex assay against U2OS
Assay type: toxicity, cell-based
Settings: human, 12 h, 1 µM, compound concentration 1 uM, replicate 1
readout-type: Population Mitotic Cells (%)
// return numeric value only (unit: %, not printed)

Take a look at these entries with their results.
> print(dat)
                                   molecule  system.under.test                  readout.type  unit.name  quantitative.result
1  Cc1cccc(CN2CCN(C(c3ccccc3)c3ccc(Cl)cc3)CC2)c1.Cl.Cl (configuration not stated)               U2OS  Population Mitotic Cells (%)          %                   72
2  COC(=O)C1=C(C)NC(C)=C(C(=O)OCCCN2CCC(c3ccccc3)(c3ccccc3)CC2)[C@H]1c1cccc([N+](=O)[O-])c1               U2OS  Population Mitotic Cells (%)          %                   36
3  CC(C)c1noc(N2CCC(COc3ccc(-c4ccc(S(C)(=O)=O)cc4)nc3)CC2)n1               U2OS  Population Mitotic Cells (%)          %                   41

What value of measured Population Mitotic Cells (%) is listed for Cc1ccccc1C(c1ccccc1C)N1C2CCC1CC(O)(c1ccccc1)C2 (configuration not stated) ?
66

Then this molecule: "CC(C)NC(=O)N1CC[C@H](NC2=Nc3cc(F)ccc3N(CC(F)F)c3ccc(Cl)cc32)C1"
50

And for "COc1cc(Nc2nccc(-c3cnn4nc(OC)ccc34)n2)cc(C(F)(F)F)c1" ?
72

# repeat for "CCCSc1nc(N[C@@H]2C[C@H]2c2ccc(F)c(F)c2)c2nnn([C@@H]3C[C@H](OCCO)[C@@H](O)[C@H]3O)c2n1"
76

Do the same for "C=CC(=O)Nc1cccc(Oc2nc(Nc3ccc(N4CCN(C)CC4)cc3OC)ncc2Cl)c1" please
32

Query "Cc1c[nH]c2nccc(Oc3c(F)cc(Nc4cc(Cl)nc(N)n4)cc3F)c12" next
52

Please give the result for "CC(C)CC(=O)Nc1[nH]nc2c1CN(C(=O)C1CCN(C)CC1)C2(C)C" too.
75

Can you check "C=CC(=O)Nc1ccc2[nH]c(=O)n(C3CCN(Cc4ccc(-c5nc6cc[nH]c(=O)c6cc5-c5ccccc5)cc4)CC3)c2c1" next?
75

Query "Cc1nc(N2CC[C@H](O)C2)ncc1-c1cc(C(F)(F)F)cc2[nH]ncc12" next
75

Same thing, different molecule: "Cl.O=C(O)c1cc(-c2ccc(C3CCNCC3)cc2)c2ccc(-c3ccc(C(F)(F)F)cc3)cc2c1"
74

What do we get for "C[C@]12CC[C@@H]3c4ccc(O)cc4CC[C@H]3[C@@H]1CC[C@@H]2O" ?
88
